The reported measurements were obtained from patent US9150577B2.

measured on: Human RSK2 (Homo sapiens (Human))
Sequence (P51812 whole entry): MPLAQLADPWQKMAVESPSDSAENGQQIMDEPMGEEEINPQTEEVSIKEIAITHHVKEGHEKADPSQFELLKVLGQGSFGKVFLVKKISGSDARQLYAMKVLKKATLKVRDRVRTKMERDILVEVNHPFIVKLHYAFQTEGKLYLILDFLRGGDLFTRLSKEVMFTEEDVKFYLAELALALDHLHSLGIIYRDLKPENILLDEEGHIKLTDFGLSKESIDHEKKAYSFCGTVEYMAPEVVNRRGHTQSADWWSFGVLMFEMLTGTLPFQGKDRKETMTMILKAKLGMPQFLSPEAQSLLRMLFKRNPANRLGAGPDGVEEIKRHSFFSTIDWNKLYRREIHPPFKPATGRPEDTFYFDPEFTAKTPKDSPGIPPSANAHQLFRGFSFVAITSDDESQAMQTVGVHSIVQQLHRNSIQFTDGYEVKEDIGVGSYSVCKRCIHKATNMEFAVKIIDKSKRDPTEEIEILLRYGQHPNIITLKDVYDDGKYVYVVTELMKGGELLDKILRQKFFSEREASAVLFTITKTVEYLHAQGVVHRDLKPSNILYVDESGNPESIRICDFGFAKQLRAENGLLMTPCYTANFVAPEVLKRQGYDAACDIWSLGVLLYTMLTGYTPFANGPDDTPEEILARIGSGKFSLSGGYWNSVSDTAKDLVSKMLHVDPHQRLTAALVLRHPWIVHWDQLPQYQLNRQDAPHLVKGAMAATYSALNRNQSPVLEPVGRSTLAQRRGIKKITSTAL
attribute measured: IC50

molecule=Cc1ccc(-c2cccc(NC(=O)c3ccc4cc5n(c4c3)CCCNC5=O)c2)s1 measured_on="Human RSK2 (Homo sapiens (Human))" attribute_measured=IC50 reported_measurement="4100 nM"
molecule="CC1CNC(=O)c2cc3ccc(C(=O)Nc4cn[nH]c4)cc3n2C1 (stereo not shown)" measured_on="Human RSK2 (Homo sapiens (Human))" attribute_measured=IC50 reported_measurement="145 nM"
molecule="O=C(Nc1cnn(C2CCOC2)c1)c1ccc2cc3n(c2c1)CCCNC3=O (stereo not shown)" measured_on="Human RSK2 (Homo sapiens (Human))" attribute_measured=IC50 reported_measurement="27 nM"
molecule="CC1CNC(=O)c2cc3ccc(C(=O)Nc4nc5ccccc5n4CCCN(C)C)cc3n21 (stereo not shown)" measured_on="Human RSK2 (Homo sapiens (Human))" attribute_measured=IC50 reported_measurement="1.3 nM"
molecule=Cc1cc(NC(=O)c2ccc3cc4n(c3c2)CC2(CCC2)CNC4=O)no1 measured_on="Human RSK2 (Homo sapiens (Human))" attribute_measured=IC50 reported_measurement="1300 nM"
molecule="CC1CNC(=O)c2cc3ccc(C(=O)Nc4cc5ccccc5[nH]4)cc3n21 (stereo not shown)" measured_on="Human RSK2 (Homo sapiens (Human))" attribute_measured=IC50 reported_measurement="8 nM"
molecule=O=C(Nc1ncc[nH]1)c1ccc2cc3n(c2c1)CCCNC3=O measured_on="Human RSK2 (Homo sapiens (Human))" attribute_measured=IC50 reported_measurement="25.5 nM"
molecule=C[C@H]1NC(=O)c2cc3ccc(C(=O)Nc4cnn(Cc5ccccc5)c4)cc3n2[C@H]1C measured_on="Human RSK2 (Homo sapiens (Human))" attribute_measured=IC50 reported_measurement="65.5 nM"
molecule=O=C(Nc1ccccc1Cl)c1ccc2cc3n(c2c1)CCCNC3=O measured_on="Human RSK2 (Homo sapiens (Human))" attribute_measured=IC50 reported_measurement="6000 nM"
molecule=CC(C)c1cc(NC(=O)c2ccc3cc4n(c3c2)CCCNC4=O)no1 measured_on="Human RSK2 (Homo sapiens (Human))" attribute_measured=IC50 reported_measurement="66 nM"
molecule=O=C(Nc1nc2cc(C(F)(F)F)ccc2[nH]1)c1ccc2cc3n(c2c1)CCCNC3=O measured_on="Human RSK2 (Homo sapiens (Human))" attribute_measured=IC50 reported_measurement="24 nM"
molecule=O=C(Nc1nc2ccccc2n1C1CCCC1)c1ccc2cc3n(c2c1)CCCNC3=O measured_on="Human RSK2 (Homo sapiens (Human))" attribute_measured=IC50 reported_measurement="25 nM"
molecule=CN(C)CCCn1c(NC(=O)c2ccc3cc4n(c3c2)CC2(CCC2)CNC4=O)nc2ccccc21 measured_on="Human RSK2 (Homo sapiens (Human))" attribute_measured=IC50 reported_measurement="11 nM"
molecule="CCn1c(NC(=O)c2ccc3cc4n(c3c2)C(C)CCNC4=O)nc2ccccc21 (stereo not shown)" measured_on="Human RSK2 (Homo sapiens (Human))" attribute_measured=IC50 reported_measurement="0.6 nM"
molecule=O=C(Nc1ccccc1)c1ccc2cc3n(c2c1)CCCNC3=O measured_on="Human RSK2 (Homo sapiens (Human))" attribute_measured=IC50 reported_measurement="290 nM"
molecule=CN(C)CCCn1c(NC(=O)c2ccc3cc4n(c3c2)CC2(CC2)CNC4=O)nc2ccccc21 measured_on="Human RSK2 (Homo sapiens (Human))" attribute_measured=IC50 reported_measurement="9.25 nM"
molecule=CC(C)(C)c1nnc(NC(=O)c2ccc3cc4n(c3c2)CCCNC4=O)s1 measured_on="Human RSK2 (Homo sapiens (Human))" attribute_measured=IC50 reported_measurement="96 nM"
molecule="C[C@@H]1CNC(=O)c2cc3ccc(C(=O)Nc4cccnc4)cc3n2[C@H]1C (relative stereo)" measured_on="Human RSK2 (Homo sapiens (Human))" attribute_measured=IC50 reported_measurement="1100 nM"
molecule=O=C(Nc1cc(C2CCCCC2)no1)c1ccc2cc3n(c2c1)CCCNC3=O measured_on="Human RSK2 (Homo sapiens (Human))" attribute_measured=IC50 reported_measurement="39 nM"
molecule="Cc1cc(NC(=O)c2ccc3cc4n(c3c2)[C@@H](C)[C@H](C)CNC4=O)no1 (relative stereo)" measured_on="Human RSK2 (Homo sapiens (Human))" attribute_measured=IC50 reported_measurement="570 nM"
molecule=CC1(C)CNC(=O)c2cc3ccc(C(=O)Nc4cnn(Cc5ccccc5)c4)cc3n2C1 measured_on="Human RSK2 (Homo sapiens (Human))" attribute_measured=IC50 reported_measurement="110 nM"
molecule=O=C(Nc1cc(-c2cccnc2)no1)c1ccc2cc3n(c2c1)CCCNC3=O measured_on="Human RSK2 (Homo sapiens (Human))" attribute_measured=IC50 reported_measurement="30 nM"
molecule=CC(C)n1c(NC(=O)c2ccc3cc4n(c3c2)[C@@H](C)CNC4=O)nc2ccccc21 measured_on="Human RSK2 (Homo sapiens (Human))" attribute_measured=IC50 reported_measurement="21 nM"
molecule=CC(C)(O)Cn1c(NC(=O)c2ccc3cc4n(c3c2)CCCNC4=O)nc2ccccc21 measured_on="Human RSK2 (Homo sapiens (Human))" attribute_measured=IC50 reported_measurement="5.4 nM"
molecule=Cn1cc(NC(=O)c2ccc3cc4n(c3c2)C(C)(C)CNC4=O)nc1C(=O)NC(C)(C)C measured_on="Human RSK2 (Homo sapiens (Human))" attribute_measured=IC50 reported_measurement="6 nM"
molecule=CC(C)n1c(NC(=O)c2ccc3cc4n(c3c2)[C@H](C)CNC4=O)nc2ccccc21 measured_on="Human RSK2 (Homo sapiens (Human))" attribute_measured=IC50 reported_measurement="1.9 nM"
molecule=Cn1c(NC(=O)c2ccc3cc4n(c3c2)CCCNC4=O)nc2ccc(Cl)cc21 measured_on="Human RSK2 (Homo sapiens (Human))" attribute_measured=IC50 reported_measurement="170 nM"
molecule=CC1(C)CNC(=O)c2cc3ccc(C(=O)Nc4nc5ccccc5[nH]4)cc3n21 measured_on="Human RSK2 (Homo sapiens (Human))" attribute_measured=IC50 reported_measurement="0.89 nM"
molecule="Cc1cc(NC(=O)c2ccc3cc4n(c3c2)CC(C)CNC4=O)no1 (stereo not shown)" measured_on="Human RSK2 (Homo sapiens (Human))" attribute_measured=IC50 reported_measurement="150 nM"
molecule=O=C(Nc1cn[nH]c1)c1ccc2cc3n(c2c1)CCCNC3=O measured_on="Human RSK2 (Homo sapiens (Human))" attribute_measured=IC50 reported_measurement="43 nM"
molecule="C[C@H]1CNC(=O)c2cc3ccc(C(=O)Nc4nc5ccccc5n4CCCN(C)C)cc3n2[C@H]1C (relative stereo)" measured_on="Human RSK2 (Homo sapiens (Human))" attribute_measured=IC50 reported_measurement="2 nM"
molecule=C[C@H]1CCNC(=O)c2cc3ccc(C(=O)Nc4cnn(Cc5ccccc5)c4)cc3n21 measured_on="Human RSK2 (Homo sapiens (Human))" attribute_measured=IC50 reported_measurement="80 nM"
molecule=O=C(Nc1nnc(Cc2ccccc2)s1)c1ccc2cc3n(c2c1)CCCNC3=O measured_on="Human RSK2 (Homo sapiens (Human))" attribute_measured=IC50 reported_measurement="98 nM"
molecule=CC1(C)CNC(=O)c2cc3ccc(C(=O)Nc4cn[nH]c4)cc3n2C1 measured_on="Human RSK2 (Homo sapiens (Human))" attribute_measured=IC50 reported_measurement="2500 nM"
